Tested on: HUVEC (normal human umbilical vein endothelial cells)
Test: VEGF-induced HUVEC proliferation: cell proliferation inhibitory action test;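 note: each well holds 100 µL cell suspension before compound addition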
Type: cell-based
Details: 72 h, 5 μL of 20 μg/mL test compound solution per well, WST-8 absorbance at 450 nm three days after VEGF addition, read-out: Cell proliferation inhibition rate (%)
Counter-ions that a name gives are not always drawn.
Reported values of inhibition at 20 µg/mL (stock) for individual entries
Enter your answer as a number in %; do not include the unit.

{"compound": "Nc1cc(CSc2ncccc2C(=O)Nc2ccc3cn[nH]c3c2)ccn1 [Compound 3-5, monohydrochloride]", "assayed system": "HUVEC (normal human umbilical vein endothelial cells)", "inhibition at 20 µg/mL (stock), %": 96}

Notebook entry, HUVEC (normal human umbilical vein endothelial cells) assay: inhibition at 20 µg/mL (stock) of CC(=O)Nc1cc(CSc2ccsc2C(=O)Nc2ccc(Cl)cc2)ccn1 = ?
100

Notebook entry, HUVEC (normal human umbilical vein endothelial cells) assay: inhibition at 20 µg/mL (stock) of Cc1cc(C)cc(NC(=O)c2cccnc2SCc2ccnc(NC(=O)OC(C)(C)C)c2)c1 = ?
100

Notebook entry, HUVEC (normal human umbilical vein endothelial cells) assay: inhibition at 20 µg/mL (stock) of CC(C)(C)OC(=O)Nc1cc(CSc2ncccc2C(=O)Nc2ccc(C(C)(C)C)cc2)ccn1 = ?
95

Notebook entry, HUVEC (normal human umbilical vein endothelial cells) assay: inhibition at 20 µg/mL (stock) of Nc1cc(CSc2ncccc2C(=O)Nc2ccc(OC(F)(F)F)cc2)ccn1 = ?
97

Notebook entry, HUVEC (normal human umbilical vein endothelial cells) assay: inhibition at 20 µg/mL (stock) of Cc1cc(C)cc(NC(=O)c2ccccc2SCc2ccnc(N)c2)c1 [Compound 3-20, monohydrochloride] = ?
100

Notebook entry, HUVEC (normal human umbilical vein endothelial cells) assay: inhibition at 20 µg/mL (stock) of CNC(=O)Nc1cc(CSc2ncccc2C(=O)Nc2ccc(OC(F)F)cc2)ccn1 = ?
100

Notebook entry, HUVEC (normal human umbilical vein endothelial cells) assay: inhibition at 20 µg/mL (stock) of CC(=O)Nc1cc(CSc2ncccc2C(=O)Nc2cc(C)c(O)c(C)c2)ccn1 = ?
100

src = patent US7544703B2
